The following compounds are shown together with reported Z Repl 2 values.
# TARGET_DESC: UniProt P10636
# Sequence (P10636 623-695 limits assumed): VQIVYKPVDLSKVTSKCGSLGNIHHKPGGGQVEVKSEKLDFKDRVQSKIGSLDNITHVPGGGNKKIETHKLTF
# MEASUREMENT_DESCRIPTION: MCE Phenols Library screening, tau biosensor cell seeding assay (AvZ)
# Type: cell-based
# REPORTED_CONDITIONS: Z score, replicate 2
A bare number is all that is needed in reply.

Would you please look over these solved cases?
                                   compound  quantitative_readout
0  COc1cc(CCC(=O)CC(=O)CCc2ccc(O)c(OC)c2)ccc1O [Tetrahydrocurcumin]                 -0.72
1             CC(=O)c1cc2c(CO)cc(O)cc2oc1=O                 0.126
2                 COc1cc2ccc(=O)oc2c(OC)c1O                 0.742

Entry "COc1cc2oc3cc(O)c(OC)c(CC=C(C)C)c3c(=O)c2c(O)c1CC=C(C)C" , Z Repl 2 reported as -0.19

Entry "CC(C)=CCc1cc2c(cc1O)O[C@H](c1ccc(O)cc1)CC2=O" , Z Repl 2 reported as -0.767

Entry "Oc1cc(O)cc(/C=C/c2ccc(O)cc2O)c1" , Z Repl 2 reported as -0.792

Entry OC[C@H]1O[C@@H](Oc2ccc(O)cc2)[C@H](O)[C@@H](O)[C@@H]1O [Arbutin] , Z Repl 2 reported as 0.333

Entry "COc1ccc(CC(=O)c2ccc(O)cc2O)cc1" , Z Repl 2 reported as 0.358

Entry "O=c1cc(-c2ccc(O)cc2)oc2cc(O)c([C@@H]3O[C@H](CO)[C@@H](O)[C@H](O)[C@H]3O)c(O)c12" , Z Repl 2 reported as 1.769

Entry O=C1c2c(O)cccc2C([C@@H]2O[C@H](CO)[C@@H](O)[C@H](O)[C@H]2O)c2cc(CO)cc(O)c21 (stereo partly drawn) [Aloin] , Z Repl 2 reported as 0.236

Entry "Cc1c(O)c(C)c2c(c1O)C(=O)C[C@@H](c1ccc(O)cc1)O2" , Z Repl 2 reported as -0.766

Entry O=C(/C=C/c1ccc(O)c(O)c1)OC[C@H]1O[C@@H](OCCc2ccc(O)c(O)c2)[C@H](O)[C@@H](O)[C@@H]1O [Calceolarioside B] , Z Repl 2 reported as -0.703

Entry COc1cc(CCC(O)CC(O)CCc2ccc(O)c(OC)c2)ccc1O (stereo not drawn) [Octahydrocurcumin] , Z Repl 2 reported as 0.033

Entry "COc1cc2c(cc1O)CC[C@@H]1[C@@H]2CC[C@]2(C)[C@@H](O)CC[C@@H]12" , Z Repl 2 reported as 0.7

Entry "O=C(O)c1ccc(O)c(O)c1" , Z Repl 2 reported as -0.202

Entry "CC1=CC(=O)c2c(O)cccc2C1=O" , Z Repl 2 reported as -0.904

Entry "Oc1cc(O)c2c(c1)O[C@H](c1ccc(O)c(O)c1)[C@@H](O)[C@H]2O" , Z Repl 2 reported as -0.356

Entry "O=C1C[C@@H](c2ccc(O)c(O)c2)Oc2cc(O)cc(O)c21" , Z Repl 2 reported as 0.192

Entry "COc1ccc(-c2coc3cc(O)ccc3c2=O)cc1O" , Z Repl 2 reported as -0.53

Entry "COc1cc(-c2cc(=O)c3c(O)c(OC)c(O)cc3o2)ccc1O" , Z Repl 2 reported as 0.443

Entry "O=C(/C=C/c1ccc(O)c(O)c1)O[C@@H]1C[C@@](O)(C(=O)O)C[C@@H](O)[C@@H]1O" , Z Repl 2 reported as -0.408

Entry COc1ccc(-c2oc3cc(O)cc(O)c3c(=O)c2O)cc1 [Kaempferide] , Z Repl 2 reported as -1.05

Entry "CC(=O)CCc1ccc(O)cc1" , Z Repl 2 reported as -0.77

Entry "COc1cc(/C=C/C(=O)O[C@H]2[C@H](O)[C@@H](CO)O[C@@]2(CO)O[C@H]2O[C@H](CO)[C@@H](O)[C@H](O)[C@H]2O)ccc1O" , Z Repl 2 reported as -0.196
